Test: yeast display, Sf9 membrane polyspecificity reagent, FACS + sequencing; frameworks hold sequencing errors
recorded metric: polyreactivity (PSR sort gate)

Worked examples follow.
construct sequence: QVQLVESGGGLVQSGGSLRLSCAASGGIFRYYVMGWYRQAPGKERELVAPINSGGTTYYEDSVKGRFTISRDNAKNTVYLQMNSLKPEDTAVYFCAAYYAGFGYNYWGQGTQVTVSS
polyreactivity (PSR sort gate): low polyreactivity
--
construct sequence: QVQLVESGGGLVQAGGSLRLSCAASGSTFQIYVKGWYRQAPGKERELVAAISGSGVRTYYADSVKGRFTISRDTAKNTVYIQMHSLKPEDTAVYYCAVDYKSDWAYDYWGQGTQVTVSS
polyreactivity (PSR sort gate): high polyreactivity
--
construct sequence: QVQLVESGGGLVQAGGSLRLSCAASGFTIYYYAMGWYRQAPGKERELVASITSGGSTYYADSVKGRFTISRDNAKNTVYLQMHSLKPEDTAVYDCAKTRLHSKEGDYWGQGTQVTVSS
polyreactivity (PSR sort gate): low polyreactivity
--
construct sequence: QVQLVESGGGLVQAGGSLRLSCAASGGTFAGNAMGWYRQAPGKERELVAAISKSGAITYYADSVKGRFTISRDNAKNTVYLQMNSLKPEDTAVYYCAARYLSGTSRYYYWGQGTQVTVSS
polyreactivity (PSR sort gate): high polyreactivity

Enquiry: Requested read-out: polyreactivity (PSR sort gate). Entry: "QVQLVESGGGLVQAGGSLRLSCAACGSIFNYYTMGWYRTAPGKERELVADISWSGGSTYYADSVKGRFTISRDNAKNTVYLQMNSLKPEETAVYYCAADFGLFPYVGTGYYYWGQGTQVTVSS"
Return: low polyreactivity
